METHOD: Volume of distribution at steady state was determined after administering 1 mg/kg of compound intravenously in rat no.3 belonging to phenotype EM (extensive metabolizer)
Type: ADME, organism-based
Design: dose 1 mg/kg, route intravenous
PARTICULARS: in vivo, iv, read-out: Vdss
OBSERVABLE: Vd (L/kg)
Enter your answer as a number in L/kg; do not include the unit.

Item: "COc1cc2ncnc(N3CCN(C(=O)Nc4ccc(C#N)cc4)CC3)c2cc1OC" | Vd: 0.15

* * *

METHOD: Volume of distribution at steady state was determined after administering 1 mg/kg of compound intravenously in rat no.4 belonging to phenotype PM (poor metabolizer)
Format: ADME, organism-based
Design: dose 1 mg/kg, route intravenous
PARTICULARS: in vivo, iv, read-out: Vdss
OBSERVABLE: Vd (L/kg)
Expressed in L/kg, but write only the number.

Lab note: measured Vd of "COc1cc2ncnc(N3CCN(C(=O)Nc4ccc(C#N)cc4)CC3)c2cc1OC" was 0.18

* * *

METHOD: Maximum time of retention of orally administered compound (30 mg/kg) in rat no.5 belonging to phenotype PM (poor metabolizer)
Assay type: ADME, organism-based
PARTICULARS: in vivo, po
OBSERVABLE: Tmax (h)
The reply should be a number in h, with the unit left off.

For record "COc1cc2ncnc(N3CCN(C(=O)Nc4ccc(C#N)cc4)CC3)c2cc1OC" the listed Tmax is 8

* * *

METHOD: Volume of distribution at steady state was determined after administering 1 mg/kg of compound intravenously in rat no.9 belonging to the phenotype EM (extensive metaboliser)
Format: ADME, organism-based
Parameters: dose 1 mg/kg, route intravenous
PARTICULARS: in vivo, iv, read-out: Vdss
OBSERVABLE: Vd (L/kg)
Return type: number; implicit unit L/kg.

// "COCCOc1cc2c(N3CCN(C(=O)Nc4ccc(C#N)cc4)CC3)ncnc2cc1OC" : Vd value = 0.252

* * *

METHOD: Plasma clearance was determined after administering 1 mg/kg of compound intravenously in rat no.1 belonging to phenotype EM (extensive metabolizer)
Format: ADME, organism-based
Design: dose 1 mg/kg, route intravenous
PARTICULARS: iv
OBSERVABLE: clearance (mL/min/kg)
Answer in mL/min/kg, number only, no unit symbol.

So for "COc1cc2ncnc(N3CCN(C(=O)Nc4ccc(C#N)cc4)CC3)c2cc1OC" , the logged clearance turned out to be 5.82

* * *

METHOD: Plasma clearance was determined after administering 1 mg/kg of compound intravenously in rat no.2 belonging to phenotype EM (extensive metabolizer)
Assay type: ADME, organism-based
Design: dose 1 mg/kg, route intravenous
PARTICULARS: iv
OBSERVABLE: clearance (mL/min/kg)
Reply with just the number (in mL/min/kg).

Noted for "COc1cc2ncnc(N3CCN(C(=O)Nc4ccc(C#N)cc4)CC3)c2cc1OC" : its clearance reads 6.73

* * *

METHOD: Half-life period of intravenously administered compound (1 mg/kg) in rat no.1 belonging to phenotype EM (extensive metabolizer)
Assay type: ADME, organism-based
PARTICULARS: in vivo, iv, read-out: T1/2 beta (converted)
OBSERVABLE: half-life
The number alone won't do; follow it with the unit.

Briefly, half-life measured for "COc1cc2ncnc(N3CCN(C(=O)Nc4ccc(C#N)cc4)CC3)c2cc1OC" : 58.2 min
